target: furin, P09958; assay: furin cleavage Z-score vs untreated control; higher = more cleavage, active = 3.5 or more, inactive = 1 or less, 8 variable residues between constant flanks; details: 15 min;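 note: purified furin at 1:10 enzyme:substrate in 50 mM HEPES pH 7.5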
Sequence (P09958 whole entry): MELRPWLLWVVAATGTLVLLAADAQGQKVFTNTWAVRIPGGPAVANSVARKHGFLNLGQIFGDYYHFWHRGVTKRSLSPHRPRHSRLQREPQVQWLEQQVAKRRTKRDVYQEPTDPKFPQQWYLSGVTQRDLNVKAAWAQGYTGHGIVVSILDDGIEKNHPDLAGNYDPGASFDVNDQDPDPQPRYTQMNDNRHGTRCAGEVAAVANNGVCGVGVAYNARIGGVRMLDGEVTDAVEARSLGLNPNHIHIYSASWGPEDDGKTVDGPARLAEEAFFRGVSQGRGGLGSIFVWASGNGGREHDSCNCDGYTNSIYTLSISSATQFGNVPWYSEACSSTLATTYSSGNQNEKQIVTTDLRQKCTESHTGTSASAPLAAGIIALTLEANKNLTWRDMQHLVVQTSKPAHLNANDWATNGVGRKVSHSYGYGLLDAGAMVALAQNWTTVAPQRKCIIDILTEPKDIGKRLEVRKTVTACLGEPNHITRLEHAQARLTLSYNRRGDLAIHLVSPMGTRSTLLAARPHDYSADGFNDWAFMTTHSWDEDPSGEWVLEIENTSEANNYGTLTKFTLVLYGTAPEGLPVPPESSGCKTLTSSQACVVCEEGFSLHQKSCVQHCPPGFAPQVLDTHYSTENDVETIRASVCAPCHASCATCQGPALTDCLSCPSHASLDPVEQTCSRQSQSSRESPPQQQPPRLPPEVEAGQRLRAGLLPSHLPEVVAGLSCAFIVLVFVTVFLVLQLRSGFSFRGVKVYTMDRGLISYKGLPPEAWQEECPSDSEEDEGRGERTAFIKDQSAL
Some of the results follow. No count for the full screen is at hand.
This listing pairs sequences with measured furin cleavage Z-score.
Reply with the value as a number alone.

Consider the reported furin cleavage Z-score for these sequences:
| ORDERED_RESIDUES | furin cleavage Z-score |
| --- | --- |
| CAAASRLARGAGNASASA [FS-211] | 1.11 |
| CAGRGRRRRLAGNASASA [FS-1204] | 1.19 |

Field: next sequence
Query: Fill in the blank: the reported furin cleavage Z-score of CAANGSGPDQAGNASASA [HC398] is ____.
Response: -1.15
